Target or system: T1, Human CD24 (human, UniProt P25063 27-59, limits assumed)
T1 chain (looked up): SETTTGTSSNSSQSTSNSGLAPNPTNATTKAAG
Assay method text: SPR, second 1:1 binding column set
Measured metric: koff (s⁻¹)

>>> value("Antibody No 16, lead clone of 4451H (HC N35G, T59Y; LC S30K) (antibody, V domains shown) VH: QVQLVQSGAEVKKPGASVKVSCKASGYDFTGYHMGWVRQAPGQGLEWMGEINPITSDKYFNQKFKSRVTMTRDTSISTAYMELSRLRSDDTAVYYCARRDYGTSLDYWGQGTTVTVSS VL: DIQLTQSPSFLSASVGDRVTITCRASKSIKKYLAWYQQKPGKAPKLLIYAGSTLHSGIPSRFRGSGSGTEFTLTISSLQPEDFATYYCQQHNEYPITFGQGTKLEIK")
0.00808
